This listing pairs molecules with measured IC50.
molecular target: TDO (Homo sapiens); assay: A172 kynurenine cell-based assay; parameters: This assay utilised cancer cells which expressed either TDO or IDO; endogenous in cells; host or cells: A172 (human glioblastoma); conditions: A172 human glioblastoma cells, 48 hours, 500 μM L-tryptophan; read-out: A172 Kynurenine cell based assay pIC50 (converted)
Sequence (P48775 whole entry): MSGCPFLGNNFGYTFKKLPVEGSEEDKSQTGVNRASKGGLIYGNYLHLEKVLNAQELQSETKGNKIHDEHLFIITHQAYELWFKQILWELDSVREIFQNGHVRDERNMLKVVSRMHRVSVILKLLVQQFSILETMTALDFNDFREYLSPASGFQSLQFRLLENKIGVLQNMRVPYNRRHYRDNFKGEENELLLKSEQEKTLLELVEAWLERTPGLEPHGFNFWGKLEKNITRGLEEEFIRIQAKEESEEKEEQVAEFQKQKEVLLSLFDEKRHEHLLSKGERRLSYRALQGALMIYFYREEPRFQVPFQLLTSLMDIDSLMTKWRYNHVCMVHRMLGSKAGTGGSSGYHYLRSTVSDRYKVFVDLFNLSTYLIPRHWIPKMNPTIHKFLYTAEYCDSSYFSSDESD

Here's what some known entries look like.
molecule	measure	result
CC(=O)N1CCC(c2cccc3[nH]ncc23)CC1(C)C (centres unmarked)	IC50	< 3.16 µM
CC(=O)N1CCN(c2cc(C(C)C)cc3[nH]ncc23)CC1	IC50	3.24 to 31.6 µM

Request: // returns reported IC50 for input `CN(C)C(=O)N1CCN(c2cc(Cl)cc3[nH]ncc23)CC1`
Response: < 3.16 µM

Request: And then `CC1(C)CN(c2cc(C#N)cc3[nH]ncc23)CCN1S(C)(=O)=O` , what is it?
Response: < 3.16 µM

Request: And then `CNC(=O)C1(C)CCN(c2cc(Cl)cc3[nH]ncc23)CC1` , what is it?
Response: < 3.16 µM
